Data provenance is PubChem BioAssay AID1117355.

Hi there, I'd appreciate the recorded inhibition for every entry that follows.
- experimental.system: Glycogen synthase kinase-3 beta (Homo sapiens)
- assay.info: NPC library primary assay, GSK-3β enzyme inhibitors, biochemical, Homo sapiens, LANCE Ultra TR-FRET detection (AID 1117355)
- assay.conditions: LANCE Ultra TR-FRET kinase activity; at 20 µM (top of the series)
One number for each entry, in %.

compound | experimental.system | inhibition (%)
COc1ccc(-c2ccc3cc(C(=O)O)ccc3c2)cc1C12CC3CC(CC(C3)C1)C2 | Glycogen synthase kinase-3 beta (Homo sapiens) | 79.4

Batch request: inhibition per item, same order as input.
1. Cc1nc(N)nc(N)c1-c1ccc(Cl)c(Cl)c1
2. O=C(CCl)c1ccc(Cl)cc1Cl
3. C[n+]1c2cc(N)ccc2cc2ccc(N)cc21 (tested in a mixture with another compound)
4. COCc1c(C(C)C)nc(C(C)C)c(/C=C/[C@@H](O)C[C@@H](O)CC(=O)O)c1-c1ccc(F)cc1

Reply text:
1. -1.14
2. 9.91
3. -24.7
4. 3.27
